assay: in vitro; settings: dog, dog liver microsomes
RECORDED_ENDPOINT: CLint scaled at 1 h, 1 µM (L/h/kg)
Your answer should be a plain number; it is taken to be in L/h/kg.

Record request: CLint scaled at 1 h, 1 µM value, item C[C@@H]1Cc2c([nH]c3ccccc23)[C@@H](c2c(F)cc(NC3CN(CCCF)C3)cc2F)N1CC(F)(F)CO
0.78

---

assay: in vitro; details: human, microsomes
RECORDED_ENDPOINT: CLint scaled at 1 h, 1 µM (mL/min/kg)
Output spec: scalar in mL/min/kg, unitless text.

[[record]]
smiles_code = "C[C@@H]1Cc2c([nH]c3ccccc23)[C@@H](c2c(F)cc(NC3CN(CCC(F)F)C3)cc2F)N1CC(F)(F)CO"
recorded_endpoint = "CLint scaled at 1 h, 1 µM"
reading = 12

[[record]]
smiles_code = "C[C@@H]1Cc2c([nH]c3ccccc23)[C@@H](c2c(F)cc(OC3CN(CCCO)C3)cc2F)N1CC(F)(F)CO"
recorded_endpoint = "CLint scaled at 1 h, 1 µM"
reading = 9

[[record]]
smiles_code = "C[C@@H]1Cc2c([nH]c3ccccc23)[C@@H](c2c(F)cc(NCCNCCCF)cc2F)N1CC(F)(F)CO"
recorded_endpoint = "CLint scaled at 1 h, 1 µM"
reading = 7

[[record]]
smiles_code = "C[C@@H]1Cc2c([nH]c3ccccc23)[C@@H](c2c(F)cc(N[C@H]3CCN(CCCF)C3)cc2F)N1CC(F)(F)CO"
recorded_endpoint = "CLint scaled at 1 h, 1 µM"
reading = 11

[[record]]
smiles_code = "C[C@@H]1Cc2c([nH]c3ccccc23)[C@@H](c2c(F)cc(NC3CN(CCCF)C3)cc2F)N1CC(F)(F)CO"
recorded_endpoint = "CLint scaled at 1 h, 1 µM"
reading = 11

[[record]]
smiles_code = "C[C@@H]1Cc2c([nH]c3ccccc23)[C@@H](c2c(F)cc(OCCN3CC(CF)C3)cc2F)N1CC(C)(C)F"
recorded_endpoint = "CLint scaled at 1 h, 1 µM"
reading = 10

[[record]]
smiles_code = "C[C@@H]1Cc2c(ccc3[nH]ncc23)[C@@H](c2c(F)cc(OCCN3CC(CF)C3)cc2F)N1CC(C)(C)F"
recorded_endpoint = "CLint scaled at 1 h, 1 µM"
reading = 17

[[record]]
smiles_code = "C[C@@H]1Cc2c([nH]c3ccccc23)[C@@H](c2ccc(NC3CN(CCCF)C3)nc2)N1CC(F)(F)CO"
recorded_endpoint = "CLint scaled at 1 h, 1 µM"
reading = 6


# input molecule: C[C@@H]1Cc2c([nH]c3cccc(F)c23)[C@@H](c2c(F)cc(NC3CN(CCCF)C3)cc2F)N1CC(F)(F)CO ; wanted: its CLint scaled at 1 h, 1 µM
12

Field request: CLint scaled at 1 h, 1 µM | item: C[C@@H]1Cc2c([nH]c3ccccc23)[C@@H](c2c(F)cc(O[C@H]3CCN(CCCF)C3)cc2F)N1CC(F)(F)CO
15
